Where do the numbers come from? From patent US6495699B2.

# Method description: Determination of inhibitor concentration in plasma after oral dosing
# Assay type: in vivo, Sprague Dawley rats
# Experimental parameters: Sprague-Dawley, rat plasma, dose 50 mg/kg, vehicle A, dosed as the benzyl ester prodrug
Outcome measure: Cmax (ng/mL)
Give bare numbers, in ng/mL.

Sure, the documented Cmax for `CC1(C)COC(=O)[C@H]1NC(=O)[C@@H](CC(=O)O)n1ccc(-c2ccc(-c3ccncc3)cc2)c1` is 1140

---

I'd appreciate it if you could supply Ki values for the items below.
# Assayed system: fibroblast collagenase-1 catalytic domain (HFC) (Homo sapiens)
# Construct: The catalytic domain of human collagenase-1 was expressed as a fusion protein with ubiquitin in E. coli; ubiquitin (cleaved yes); made in house; host or cells: E. coli
# Sequence (P03956 100-269 limits assumed): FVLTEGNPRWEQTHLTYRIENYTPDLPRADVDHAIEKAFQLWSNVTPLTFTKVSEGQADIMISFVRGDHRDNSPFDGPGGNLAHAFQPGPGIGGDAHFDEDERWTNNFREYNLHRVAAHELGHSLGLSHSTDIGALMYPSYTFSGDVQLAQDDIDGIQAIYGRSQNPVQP
# Method description: Fluorometric MCA-peptide hydrolysis assay, fibroblast collagenase-1 (HFC)
# Type: biochemical
# Experimental parameters: apparent Ki; 10 μM MCA peptide substrate, 37° C., pH 7.5; read-out: HFC (Ki,app)
Give bare numbers, in nM.

Reference set (2 entries):
CCOC(=O)c1ccc(NC(=O)[C@H](CC(C)C)NC(=O)[C@@H](CC(=O)O)n2cccc2)cc1    1900
CNC(=O)[C@@H](NC(=O)C(CC(=O)O)n1cnc(-c2ccc(-c3ccccc3)cc2)c1)C(C)(C)C (mixture of isomers)    24000

Sure, the documented Ki for `CNC(=O)[C@@H](NC(=O)[C@@H](CC(=O)O)n1ccc(-c2ccc(C#N)cc2)c1)C(C)(C)C` is 997
